Assay: TOX21_p53_BLA_p3_viability: Viability Assessment in the Tox21 HCT-116 p53 Agonism Beta-lactamase Assay, Phase 3 (AID 2283593);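 note: cells exposed to compound for 16 h before reading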
Records with an inconclusive call do not appear. Activity calls are given as the source filed them. Rule for the calls: active = hit-call score of the fitted dose curve at least 0.9, where 1 is the maximum; inconclusive = response in the unintended direction; inactive = score below 0.9.
Output constraint: value belongs to active, inactive

Here are 4 compounds together with their reported answers.
{"compound": "CN1CCN(c2c(F)cc3c(=O)c(C(=O)O)cn(CCF)c3c2F)CC1", "group label": "inactive"}
{"compound": "NC(N)=NCC1COC2(CCCCC2)O1 (stereo unspecified)", "group label": "inactive"}
{"compound": "O=C(O)CSCC(=O)NC1CCSC1=O (stereo unspecified)", "group label": "inactive"}
{"compound": "CCc1ccc(S(=O)(=O)O)cc1", "group label": "inactive"}

From here, focus on the item given below.
Test call for this compound, please: `O=C(CCBr)N1CCN(C(=O)CCBr)CC1` inactive

----------
Experiment: TOX21_p53_BLA_p4_viability: Viability Assessment in the Tox21 HCT-116 p53 Agonism Beta-lactamase Assay, Phase 4 (AID 2283597);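 note: hits lower the luminescence signal meaning cytotoxicity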
Results filed as inconclusive are left out. Active and inactive are the calls of the source. The calls were made as follows: active = hit-call score of the fitted dose curve at least 0.9, where 1 is the maximum; inconclusive = response in the unintended direction; inactive = score below 0.9.
Use one of these outcomes when replying: yes (1) (active), no (0) (inactive)

Answered cases to consult:
{"molecule": "NC(=O)c1ccncc1", "group label": "no (0)"}
{"molecule": "Clc1cc(Cl)c(OCC#CI)cc1Cl", "group label": "yes (1)"}
{"molecule": "O=C(O)c1cc(N=Nc2ccc([N+](=O)[O-])cc2)ccc1O", "group label": "yes (1)"}

# outcome recorded in this test, key = `CC[C@H]1OC(=O)C[C@@H](O)[C@H](C)[C@@H](O[C@@H]2O[C@H](C)[C@@H](O[C@H]3C[C@@](C)(O)[C@@H](O)[C@H](C)O3)[C@H](N(C)C)[C@H]2O)[C@@H](CC=O)C[C@@H](C)C(=O)/C=C/C(C)=C/[C@@H]1CO[C@@H]1O[C@H](C)[C@@H](O)[C@@H](OC)[C@H]1OC` no (0)

GET /call?item= `C[C@H]1O[C@@H](O[C@H]2CC[C@@]3(C)[C@H](CC[C@@H]4[C@@H]3C[C@@H](O)[C@]3(C)[C@@H](C5=CC(=O)OC5)CC[C@]43O)C2)C[C@H](O)[C@@H]1O[C@H]1C[C@H](O)[C@H](O[C@H]2C[C@H](O)[C@H](O[C@@H]3O[C@H](CO)[C@@H](O)[C@H](O)[C@H]3O)[C@@H](C)O2)[C@@H](C)O1` returns the recorded outcome of this test. yes (1)

----------
Assay: TOX21_p53_BLA_p2_viability: Viability Assessment in the Tox21 HCT-116 p53 Agonism Beta-lactamase Assay, Phase 2 (AID 2283591);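 note: compound exposure lasted 16 h at 37 °C; actives lower the ATP signal meaning cytotoxicity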
Results filed as inconclusive are left out. The source made the active and inactive calls. How the source made its calls: active means hit-call score of the fitted dose curve at least 0.9, where 1 is the maximum; inconclusive means response in the unintended direction; inactive means score below 0.9.
API: response.call in active, inactive

See these solved cases before continuing.
{"compound": "CC(=O)Oc1ccc2c(c1)CC[C@@H]1[C@@H]2CC[C@]2(C)[C@@H](O)CC[C@@H]12", "group label": "inactive"}
{"compound": "CCN[C@@H]1C[C@H](N)[C@@H](OC2OC(CN)=CCC2N)[C@H](O)[C@H]1O[C@H]1OC[C@](C)(O)[C@H](NC)[C@H]1O (stereo not given in full)", "group label": "inactive"}
{"compound": "Nc1ccncc1N", "group label": "inactive"}
{"compound": "CN(C)CCc1c[nH]c2ccc(Cn3cncn3)cc12", "group label": "inactive"}
{"compound": "COc1cc(C=C2CCCC(=Cc3ccc(O)c(OC)c3)C2=O)ccc1O", "group label": "active"}
{"compound": "O=C1Nc2ccccc2C1=O", "group label": "inactive"}
{"compound": "CC1(C)[C@@H]2CC[C@]3(C2)[C@@H]1C(=O)CCC3(C)C", "group label": "inactive"}
{"compound": "CCCCN(CCCC)CC(O)c1cc(Cl)cc2c1-c1ccc(Cl)cc1/C2=C/c1ccc(Cl)cc1 (stereo not given)", "group label": "inactive"}

How did this test come out for `CCC(=O)Nc1cccc(N)c1` ? inactive

What classification did `CN(C1CCCCC1)S(=O)(=O)c1ccccc1N` end up with in this test? inactive

Every entry's value here was drawn from PubChem BioAssay (EPA / NIEHS).
